System: soybeans
Test: Herbicidal effect in a variety of soil types
Format: in vivo
Conditions: Wabash silty clay, Table XVII B
Consider the following compounds; for each one, report its GR15.
Your answer is read as Kg/Ha, so omit the unit and give the number.

Fill blank: measured GR15 of the compound Cc1cccc(C(F)(F)F)c1N(COC(C)C)C(=O)CCl is ____.
3.0

Fill blank: measured GR15 of the compound CCOCN(C(=O)CCl)c1c(C)cccc1C(F)(F)F is ____.
2.2

Fill blank: measured GR15 of the compound CCCOCN(C(=O)CCl)c1c(C)cccc1C(F)(F)F is ____.
2.0

Fill blank: measured GR15 of the compound Cc1cccc(C(F)(F)F)c1N(COCC(C)C)C(=O)CCl is ____.
2.2

###

System: Barnyardgrass
Test: Resistance to leaching and resulting herbicidal efficacy
Assay type: in vivo
Settings: Echinochloa crus-galli, Drummer silt clay, 0.14 Kg/Ha, rain 10.16 cm; read-out: Percent Inhibition
Consider the following compounds; for each one, report its inhibition at 140 g/ha.
Your answer is read as %, so omit the unit and give the number.

Fill blank: measured inhibition at 140 g/ha of the compound CCCOCN(C(=O)CCl)c1c(CC)cccc1C(F)(F)F is ____.
70

Fill blank: measured inhibition at 140 g/ha of the compound CCCOCN(C(=O)CCl)c1c(C)cccc1C(F)(F)F is ____.
54

Fill blank: measured inhibition at 140 g/ha of the compound CCOCN(C(=O)CCl)c1c(C)cccc1C(F)(F)F is ____.
20

Fill blank: measured inhibition at 140 g/ha of the compound Cc1cccc(C(F)(F)F)c1N(COCC(C)C)C(=O)CCl is ____.
12

###

Test system: seedling johnsongrass
Assay: Greenhouse pre-emergence GR15/GR85 selectivity test
Format: in vivo
Conditions: in lima beans, Table XVI
measure: selectivity factor (GR15/GR85)

Fill blank: measured selectivity factor (GR15/GR85) of the compound CCCOCN(C(=O)CCl)c1c(CC)cccc1C(F)(F)F [Example 10] is ____.
> 3.1

Fill blank: measured selectivity factor (GR15/GR85) of the compound Cc1cccc(C(F)(F)F)c1N(COC(C)C)C(=O)CCl [Example 4] is ____.
> 2.2

Fill blank: measured selectivity factor (GR15/GR85) of the compound Cc1cccc(C(F)(F)F)c1N(COCC(C)C)C(=O)CCl [Example 5] is ____.
> 3

###

System: shattercane
Test: Greenhouse pre-emergence GR15/GR85 selectivity test
Assay type: in vivo
Settings: in lima beans, Table XVI
measure: selectivity factor (GR15/GR85)

Fill blank: measured selectivity factor (GR15/GR85) of the compound Cc1cccc(C(F)(F)F)c1N(COCC(C)C)C(=O)CCl is ____.
> 2

Fill blank: measured selectivity factor (GR15/GR85) of the compound Cc1cccc(C(F)(F)F)c1N(COC(C)C)C(=O)CCl is ____.
> 2.2

Fill blank: measured selectivity factor (GR15/GR85) of the compound CCCOCN(C(=O)CCl)c1c(CC)cccc1C(F)(F)F is ____.
> 2

###

Consider the following compounds; for each one, report its GR85 Rate.
Tested on: common purslane
Assay: Greenhouse pre-emergence GR15/GR85 selectivity test
Format: in vivo
Conditions: Table XV

Fill blank: measured GR85 Rate of the compound Cc1cccc(C(F)(F)F)c1N(COC(C)C)C(=O)CCl is ____.
> 1.12 Kg/Ha

Fill blank: measured GR85 Rate of the compound Cc1cccc(C(F)(F)F)c1N(COCC(C)C)C(=O)CCl is ____.
> 1.12 Kg/Ha

Fill blank: measured GR85 Rate of the compound CCCOCN(C(=O)CCl)c1c(CC)cccc1C(F)(F)F is ____.
> 1.12 Kg/Ha

###

Test system: alexandergrass
Experiment: Greenhouse pre-emergence GR15/GR85 selectivity test
Assay type: in vivo
Settings: in rape, Table XV
measure: selectivity factor (GR15/GR85)

Request: selectivity factor (GR15/GR85), test system alexandergrass, entry Cc1cccc(C(F)(F)F)c1N(COCC(C)C)C(=O)CCl
> 1.6

Request: selectivity factor (GR15/GR85), test system alexandergrass, entry Cc1cccc(C(F)(F)F)c1N(COC(C)C)C(=O)CCl
> 2.7

Request: selectivity factor (GR15/GR85), test system alexandergrass, entry CCCOCN(C(=O)CCl)c1c(CC)cccc1C(F)(F)F
> 3.1

###

Test system: red rice
Experiment: Greenhouse pre-emergence GR15/GR85 selectivity test
Type: in vivo
Conditions: in lima beans, Table XVI
Consider the following molecules; for each one, report its selectivity factor (GR15/GR85).

Fill blank: measured selectivity factor (GR15/GR85) of the molecule Cc1cccc(C(F)(F)F)c1N(COCC(C)C)C(=O)CCl is ____.
> 2.1

Fill blank: measured selectivity factor (GR15/GR85) of the molecule CCCOCN(C(=O)CCl)c1c(CC)cccc1C(F)(F)F is ____.
> 1.1

Fill blank: measured selectivity factor (GR15/GR85) of the molecule Cc1cccc(C(F)(F)F)c1N(COC(C)C)C(=O)CCl is ____.
> 2.7
